Data origin, for the record: patent US20240262910A1

Target: T1, human CD33 IgC2 type domain with 6xHis-tag (human, UniProt P20138 140-259)
T1 construct: Produced at LakePharma; also called huCD33IgC2-His; CD33 IgC2-6xHis
T1 sequence (P20138 other isoform, or with tags, fused parts or gaps): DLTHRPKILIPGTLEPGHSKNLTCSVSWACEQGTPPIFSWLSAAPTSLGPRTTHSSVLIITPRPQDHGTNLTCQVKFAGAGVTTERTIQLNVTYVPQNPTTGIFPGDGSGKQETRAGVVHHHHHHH
Test: ELISA, hybridoma supernatant

Binder	RLU, RLU
4-B2 (hybridoma antibody) (antibody, V domains shown, AlivaMab mouse hybridoma antibody; also called 4-B2-A) VH: EVHLLESGGGLVQPGGSLRLSCAASGFIFSSNAMSWVRQAPGKGLEWVSAISGYGGNTYYADSVKGRFTISRDNSKNTLYLQMNSLRAEDTAVYYCAKWGTYIVGATGDYWGQGTLVTVSS VL: QSALTQPPSASGSPGQSVTISCTGTSNDVGGYNYVSWYQQHPGKAPKLLIYEVSKRPSGVPDRFSGSQSGNTASLTVSGLQAEDEADYYCSSYAGSNNWVFGGGTKLTVL	101000
